- target_or_system: EPHB1 (UniProt P54762)
- Sequence (P54762 whole entry, looked up): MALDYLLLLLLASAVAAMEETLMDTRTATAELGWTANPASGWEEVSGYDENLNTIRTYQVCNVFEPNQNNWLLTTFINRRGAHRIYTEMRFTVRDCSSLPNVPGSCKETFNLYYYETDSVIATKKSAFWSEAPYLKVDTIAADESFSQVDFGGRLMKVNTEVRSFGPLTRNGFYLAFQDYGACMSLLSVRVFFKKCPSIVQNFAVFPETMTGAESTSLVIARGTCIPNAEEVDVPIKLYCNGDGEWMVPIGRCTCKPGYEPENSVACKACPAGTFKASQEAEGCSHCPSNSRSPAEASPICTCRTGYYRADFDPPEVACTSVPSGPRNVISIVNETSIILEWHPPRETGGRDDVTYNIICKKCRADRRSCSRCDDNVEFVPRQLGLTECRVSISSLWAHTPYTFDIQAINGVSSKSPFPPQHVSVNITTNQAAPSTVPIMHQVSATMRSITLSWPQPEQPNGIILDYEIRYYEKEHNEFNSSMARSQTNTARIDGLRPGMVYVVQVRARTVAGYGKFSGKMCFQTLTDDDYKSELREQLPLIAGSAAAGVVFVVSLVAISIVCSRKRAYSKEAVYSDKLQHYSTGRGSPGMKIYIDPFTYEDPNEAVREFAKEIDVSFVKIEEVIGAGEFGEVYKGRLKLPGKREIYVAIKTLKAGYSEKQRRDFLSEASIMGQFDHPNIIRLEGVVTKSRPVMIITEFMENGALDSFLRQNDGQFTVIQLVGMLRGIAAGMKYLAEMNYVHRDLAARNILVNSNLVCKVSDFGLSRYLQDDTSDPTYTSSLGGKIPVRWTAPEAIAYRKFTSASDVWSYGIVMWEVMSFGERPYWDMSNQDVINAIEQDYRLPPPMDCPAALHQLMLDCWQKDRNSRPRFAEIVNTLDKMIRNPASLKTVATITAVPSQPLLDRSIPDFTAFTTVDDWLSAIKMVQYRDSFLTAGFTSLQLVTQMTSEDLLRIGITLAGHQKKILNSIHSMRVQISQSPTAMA
- measurement_notes: phosphorylation enrichment, bacterial display (enrichment ratio); higher = better substrate or ligand; peptides without Tyr show the background;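 also: 11-residue human phosphosite peptides and single-mutation variants displayed on the E. coli surface, counted by deep sequencing, each peptide's frequency after selection divided by its frequency in the unselected input library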;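 also: frequency after pTyr selection over input frequency; kinase dosed for 20-30% of maximal phosphorylation in three min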
Collected phosphorylation enrichment values appear next to each entry.
reported_endpoint: phosphorylation enrichment

monomer_sequence=TDGIAYEFRVT meas_value=0.608
monomer_sequence="FRQLQYCPSVE [CTNND2_Y508_YF]" meas_value=0.669
monomer_sequence="ADFPDCKFRPR [SOX11_Y116_Y116C_YF]" meas_value=0.488
monomer_sequence="TSYSGYRCHRH [NKAPL_Y94_Y96C]" meas_value=0.386
monomer_sequence="PFTRNYFVWAV [CYBA_Y87_R90W_YF]" meas_value=3.63
monomer_sequence="IVEFAYNDKAI [PUM3_Y259_YF]" meas_value=0.395
monomer_sequence="PSGPTYRGAVP [ASAH1_Y43]" meas_value=0.757

====

Here the recorded phosphorylation enrichment is given for each entry.
- target_or_system: EPHB1 (UniProt P54762)
- measurement_notes: phosphorylation enrichment, bacterial display (enrichment ratio); higher = better substrate or ligand; peptides without Tyr show the background
reported_endpoint: phosphorylation enrichment

monomer_sequence="RVDRDYVLKST [HTATIP2_Y111_A116T]" meas_value=0.492
monomer_sequence="RRNTPYSQTMK [TET2_Y819_S817T]" meas_value=0.252
monomer_sequence="CQAHGYFCQLI [STK11_Y156]" meas_value=0.413
monomer_sequence="NLNGKYYKPRA [ANGPTL3_Y417_N418Y]" meas_value=0.404
monomer_sequence="PSRKDYETFQS [CTNND2_Y1154_P1159S_YF]" meas_value=0.91
monomer_sequence="AFGEVYEGQES [ALK_Y1131_V1135E]" meas_value=0.526
monomer_sequence="DLAAQYTTVGH [SGSH_Y240_R245H]" meas_value=0.463
monomer_sequence="FDNPIYQKTTE [LDLR_Y828_V827I]" meas_value=1.16
monomer_sequence="LGPSDYFGETA [PRKAR1A_Y323_I327T]" meas_value=0.597
monomer_sequence="NFRTTCVNANE [KCNH2_Y475_Y475C]" meas_value=0.53
monomer_sequence="KTVQDYLEKFY [MMP8_Y36]" meas_value=0.673
monomer_sequence="VGSEDYGWDLT [SPTAN1_Y1792_R1794W]" meas_value=0.602
monomer_sequence="PDGREYIYVDP [PDGFRA_Y572_H570R]" meas_value=3.98
monomer_sequence="MCTVDYLLRLQ [RYR1_Y3921_I3916M]" meas_value=0.597
monomer_sequence="HMRLRYLAAEE [CEP120_Y884_Q879H]" meas_value=0.587
monomer_sequence="APRKVYDTQDD [ZFPL1_Y215_R218Q]" meas_value=0.692
monomer_sequence="STGWSYAGVAV [KLHL3_Y577_R575W]" meas_value=0.515
monomer_sequence="KDHPDYKYQLR [SOX10_Y171_P175L]" meas_value=0.417
monomer_sequence="LVRPPYSFSAL [FOXI1_Y126_YF]" meas_value=0.385
monomer_sequence="LNERHYGALIG [BPGM_Y92]" meas_value=0.319
monomer_sequence="LFLALYTGLVH [PIGB_Y402]" meas_value=1.26
monomer_sequence="IKKLIYVFLVI [JAGN1_Y42_H44Y_YF]" meas_value=0.556
monomer_sequence="ERNARYRTPKI [PTK2B_Y699]" meas_value=0.314
monomer_sequence="CENNRYGMGTS [PDHA1_Y227]" meas_value=0.686
monomer_sequence="TIMTNYNPNFC [ALK_Y1092_D1091N_YF]" meas_value=0.43
monomer_sequence="PEQAAYQKVVA [HBB_Y131_V127E]" meas_value=0.613
monomer_sequence="YDAHNYHPLPV [OAT_Y55_G51D]" meas_value=0.923
monomer_sequence="MEVEQYIFVKC [CYBB_Y324_G322E]" meas_value=1.03
